Test system: MOLT-4 leukemia
Assay: NCI tumour cell line growth inhibition, 48 h
quantity name: TGI

Item: CC(=O)n1ccc2c(Cl)ncnc21 | TGI: > 100 µM

Item: O=C1C[C@H](c2ccc(O)c(O)c2)Oc2cc(O)cc(O)c21 | TGI: > 100 µM

Item: N=C(c1cccs1)C1(N2CCCCC2)CCCCC1 | TGI: 30.9 µM

Item: Nc1ccc(C(=O)N/C(=C\c2cccc([N+](=O)[O-])c2)c2nc3c4c(ccc3[nH]2)C(=O)c2ccccc2C4=O)cc1 | TGI: > 100 µM

Item: c1ccc2nc(OCCN3CC3)ccc2c1 | TGI: 59 µM

Item: C[N+](C)(N)c1nc(N)c(C#N)c(C#N)c1C#N | TGI: > 10 µM

Item: CN(C)CCn1nc(N)c2nc3cc(C(F)(F)F)ccc3nc21 | TGI: > 100 µM

Item: CC1CN=C(c2ccc(COc3ccc(C4=NCC(C)N4)cc3)cc2)N1 (stereo unspecified) | TGI: > 100 µM

Item: N#C/C(=C\c1ccccc1Br)C(=O)c1ccccc1 | TGI: 52.8 µM

Item: COC(=O)C1CC(C(=O)OC)c2nc3cc(C)c(C)cc3nc21 (stereo unspecified) | TGI: > 100 µM

Item: CCOC(=O)CC[C@H](N)C(=O)N[C@H](Cc1ccc(N(CCCl)CCCl)cc1)C(=O)OCC | TGI: 31.5 µM

###

Test system: A498 renal
Assay: NCI tumour cell line growth inhibition, 48 h; in the data active = GI50 below about 0.43 µM; inactive = the rest
Your reply should match one of these outcome classes. active, inactive

Query string: Assay result, entry Cc1c(C(=O)O[C@H]2[C@@H]3[C@H](C)CC[C@H]3[C@]3(C)O[C@@]2(C2CCCCC2)C[C@H]3OC(=O)CO)ccc2ccccc12 — outcome?
Result string: active

Query string: Assay result, entry COc1cccc(C2=C(c3cn(C)c4cccc(OC)c34)C(=O)NC2=O)c1 — outcome?
Result string: inactive

Query string: Assay result, entry Oc1c(CN2CCOCC2)cc(COCc2ccccc2)c2cccnc12 — outcome?
Result string: inactive

Query string: Assay result, entry O=C(CCl)Nc1cc(O)c2c(c1)C(=O)c1cccc(O)c1C2=O — outcome?
Result string: inactive

Query string: Assay result, entry O=C(Nc1cc(-c2cccnc2)nc(NCCCN2CCOCC2)n1)c1cc(Br)cc(C(F)(F)F)c1 — outcome?
Result string: inactive

###

Tested on: OVCAR-4 ovarian
Assay: NCI tumour cell line growth inhibition, 48 h
quantity name: GI50

Entry CC[C@H](NC(=O)[C@H](CS(=O)(=O)CC1CC1)N[C@@H](c1ccc(F)cc1)C(F)(F)F)C(=O)C(=O)NC1CC1 , OVCAR-4 ovarian data, GI50 value: 82.9 µM

Entry OC(COc1cccc2ccccc12)CN1CCN(c2ccccc2Cl)CC1 (stereo not given) , OVCAR-4 ovarian data, GI50 value: 12.6 µM

Entry C#CCN(Cc1nc2cc(C(F)(F)F)ccc2nc1-c1ccccc1)c1ccc(F)c(F)c1 , OVCAR-4 ovarian data, GI50 value: > 100 µM

Entry O=C(NCCCCOCC#Cc1ccccc1C#CCS(=O)(=O)c1ccccc1)c1cc2ccccc2[nH]1 , OVCAR-4 ovarian data, GI50 value: 5.56 µM

Entry O=C(CCl)Nc1cc(O)c2c(c1)C(=O)c1cccc(O)c1C2=O , OVCAR-4 ovarian data, GI50 value: 1.96 µM

Entry O=c1c2c3c(sc2n2c(-c4ccc(Br)cc4)nnc2n1Cc1ccccc1)CCCC3 , OVCAR-4 ovarian data, GI50 value: 6.03 µM

Entry CCCn1c(N)c(C(=O)CNc2ccc(I)cc2)c(=O)[nH]c1=O , OVCAR-4 ovarian data, GI50 value: > 100 µM

Entry COc1cc(-c2nn(-c3ccc(NC(=O)c4cc(Cl)cc(Cl)c4)cc3)cc2-c2ccncc2)ccc1Cl , OVCAR-4 ovarian data, GI50 value: > 100 µM

Entry O=S(=O)(O)ONC1=NCCN1 , OVCAR-4 ovarian data, GI50 value: > 100 µM

Entry CCOc1cc(C(C)(C)C)ccc1C1=N[C@@](C)(c2ccc(Cl)cc2)[C@@](C)(c2ccc(Cl)cc2)N1C(=O)N1CCN(CCS(C)(=O)=O)CC1 , OVCAR-4 ovarian data, GI50 value: 2.68 µM

Data origin: PubChem BioAssay (NCI)
